# maps each entry to its IC50
Test system: KRAS-mutant PDC tumor spheroid with HUVEC/MSC, viability
METHOD SUMMARY: Anticancer human tumor 327498-153-R-J2-PDC patient-derived uterine carcinosarcoma cell line growth inhibition [KRAS2]
PROTOCOL CONDITIONS: curve of first compound; second compound 0.316 µM
RECORDED METRIC: IC50 (nM)

- COMPOUND: "CCNC(=O)CC1N=C(c2ccc(Cl)cc2)c2cc(OC)ccc2-n2c(C)nnc21 (stereo unspecified) + CC1OCC2(CCN(c3cnc(Sc4ccnc(N)c4Cl)c(N)n3)CC2)C1N"
  CENSORING SIGN: "="
  OBS VALUE: 102
- COMPOUND: "CC1COCCN1c1cc(-c2ccnn2C)c2ccnc(-c3ccn[nH]3)c2n1 (stereo unspecified) + COc1cc2nc(C)nc(NC(C)c3cc(N)cc(C(F)(F)F)c3)c2cc1OC1CCOC1"
  CENSORING SIGN: "="
  OBS VALUE: 20.7
- COMPOUND: "CCN1CCN(Cc2ccc(Nc3ncc(F)c(-c4cc(F)c5nc(C)n(C(C)C)c5c4)n3)nc2)CC1 + C=CC(=O)N1CCN(c2nc(OCC3CCCN3C)nc3c2CCN(c2cccc4cccc(C)c24)C3)CC1CC#N"
  CENSORING SIGN: "<"
  OBS VALUE: 3.16
- COMPOUND: "CCNC(=O)CC1N=C(c2ccc(Cl)cc2)c2cc(OC)ccc2-n2c(C)nnc21 (stereo unspecified) + COc1cc2nc(C)nc(NC(C)c3cc(N)cc(C(F)(F)F)c3)c2cc1OC1CCOC1"
  CENSORING SIGN: "="
  OBS VALUE: 420
- COMPOUND: "CC(=O)Nc1cccc(-n2c(=O)n(C3CC3)c(=O)c3c(Nc4ccc(I)cc4F)n(C)c(=O)c(C)c32)c1 + C=CC(=O)N1CCN(c2nc(OCC3CCCN3C)nc3c2CCN(c2cccc4cccc(C)c24)C3)CC1CC#N"
  CENSORING SIGN: "="
  OBS VALUE: 3.49
- COMPOUND: "CC(=O)OC12COC1CC(O)C1(C)C(=O)C(O)C3=C(C)C(OC(=O)C(O)C(NC(=O)OC(C)(C)C)c4ccccc4)CC(O)(C(OC(=O)c4ccccc4)C21)C3(C)C (stereo unspecified) + C=CC(=O)N1CCN(c2nc(=O)n(-c3c(C)ccnc3C(C)C)c3nc(-c4c(O)cccc4F)c(F)cc23)C(C)C1"
  CENSORING SIGN: "<"
  OBS VALUE: 10
- COMPOUND: "CC(C)NCC(C(=O)N1CCN(c2ncnc3c2C(C)CC3O)CC1)c1ccc(Cl)cc1 (stereo unspecified) + CC1OCC2(CCN(c3cnc(Sc4ccnc(N)c4Cl)c(N)n3)CC2)C1N"
  CENSORING SIGN: "<"
  OBS VALUE: 31.6
- COMPOUND: "Cn1nccc1Nc1nccc(-c2cc3c(s2)C(C)(C)N(CCN2CCOCC2)C3=O)n1 + C=CC(=O)N1CCN(c2nc(=O)n(-c3c(C)ccnc3C(C)C)c3nc(-c4c(O)cccc4F)c(F)cc23)C(C)C1"
  CENSORING SIGN: "="
  OBS VALUE: 2240
- COMPOUND: "CC(C)n1nc(-c2ccc3oc(N)nc3c2)c2c(N)ncnc21 + COc1cc2nc(C)nc(NC(C)c3cc(N)cc(C(F)(F)F)c3)c2cc1OC1CCOC1"
  CENSORING SIGN: "="
  OBS VALUE: 2.29
- COMPOUND: "CC1(C)CCC(CN2CCN(c3ccc(C(=O)NS(=O)(=O)c4ccc(NCC5CCOCC5)c([N+](=O)[O-])c4)c(Oc4cnc5[nH]ccc5c4)c3)CC2)=C(c2ccc(Cl)cc2)C1 + CNCc1ccccc1-c1csc(C(C)Nc2nc(C)nc3cc(OC)c(OC)cc23)c1"
  CENSORING SIGN: "="
  OBS VALUE: 2710
- COMPOUND: "CC(=O)Nc1cccc(-n2c(=O)n(C3CC3)c(=O)c3c(Nc4ccc(I)cc4F)n(C)c(=O)c(C)c32)c1 + CC1OCC2(CCN(c3cnc(Sc4ccnc(N)c4Cl)c(N)n3)CC2)C1N"
  CENSORING SIGN: "="
  OBS VALUE: 0.493
- COMPOUND: "O=C(c1cc(Cc2n[nH]c(=O)c3ccccc23)ccc1F)N1CCN(C(=O)C2CC2)CC1 + COc1cc2nc(C)nc(NC(C)c3cc(N)cc(C(F)(F)F)c3)c2cc1OC1CCOC1"
  CENSORING SIGN: "="
  OBS VALUE: 1750
- COMPOUND: "CN(C)C/C=C/C(=O)Nc1cc2c(Nc3ccc(F)c(Cl)c3)ncnc2cc1O[C@H]1CCOC1 + C=CC(=O)N1CCN(c2nc(OCC3CCCN3C)nc3c2CCN(c2cccc4cccc(C)c24)C3)CC1CC#N"
  CENSORING SIGN: "="
  OBS VALUE: 2.29
- COMPOUND: "CC1COCCN1c1cc(-c2ccnn2C)c2ccnc(-c3ccn[nH]3)c2n1 (stereo unspecified) + C=CC(=O)N1CCN(c2nc(=O)n(-c3c(C)ccnc3C(C)C)c3nc(-c4c(O)cccc4F)c(F)cc23)C(C)C1"
  CENSORING SIGN: "<"
  OBS VALUE: 10
- COMPOUND: "CC1OCC2(CCN(c3cnc(Sc4ccnc(N)c4Cl)c(N)n3)CC2)C1N (stereo unspecified) + COc1cc2nc(C)nc(NC(C)c3cc(N)cc(C(F)(F)F)c3)c2cc1OC1CCOC1"
  CENSORING SIGN: "="
  OBS VALUE: 85.5
- COMPOUND: "COc1cc2nccc(Oc3ccc(NC(=O)C4(C(=O)Nc5ccc(F)cc5)CC4)cc3)c2cc1OC + CNCc1ccccc1-c1csc(C(C)Nc2nc(C)nc3cc(OC)c(OC)cc23)c1"
  CENSORING SIGN: "="
  OBS VALUE: 1910
- COMPOUND: "COC(=O)c1ccc2c(C(=Nc3ccc(N(C)C(=O)CN4CCN(C)CC4)cc3)c3ccccc3)c(O)[nH]c2c1 + CC1OCC2(CCN(c3cnc(Sc4ccnc(N)c4Cl)c(N)n3)CC2)C1N"
  CENSORING SIGN: "="
  OBS VALUE: 157
- COMPOUND: "CN(C)C/C=C/C(=O)Nc1cc2c(Nc3ccc(F)c(Cl)c3)ncnc2cc1O[C@H]1CCOC1 + C=CC(=O)N1CCN(c2nc(=O)n(-c3c(C)ccnc3C(C)C)c3nc(-c4c(O)cccc4F)c(F)cc23)C(C)C1"
  CENSORING SIGN: ">"
  OBS VALUE: 100
- COMPOUND: "CC1COCCN1c1cc(-c2ccnn2C)c2ccnc(-c3ccn[nH]3)c2n1 (stereo unspecified) + C=CC(=O)N1CCN(c2nc(OCC3CCCN3C)nc3c2CCN(c2cccc4cccc(C)c24)C3)CC1CC#N"
  CENSORING SIGN: "<"
  OBS VALUE: 10
- COMPOUND: "COC(=O)c1ccc2c(C(=Nc3ccc(N(C)C(=O)CN4CCN(C)CC4)cc3)c3ccccc3)c(O)[nH]c2c1 + CNCc1ccccc1-c1csc(C(C)Nc2nc(C)nc3cc(OC)c(OC)cc23)c1"
  CENSORING SIGN: "="
  OBS VALUE: 308
- COMPOUND: "CC(C)n1nc(-c2ccc3oc(N)nc3c2)c2c(N)ncnc21 + CC1OCC2(CCN(c3cnc(Sc4ccnc(N)c4Cl)c(N)n3)CC2)C1N"
  CENSORING SIGN: "="
  OBS VALUE: 0.756

----------
Test system: KRAS-mutant PDC tumor spheroid with HUVEC/MSC, viability
METHOD SUMMARY: Anticancer human tumor 327498-153-R-J2-PDC cell line growth inhibition [KRAS2]; active = viability on the fitted dose curve at most 10% of control; inactive = the rest;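 also: spheroids exposed to agents for seven days before reading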
PROTOCOL CONDITIONS: second compound 3.16 µM; first compound 3.16 µM
Source text: Multicellular complex tumor spheroid response to RAS pathway inhibitors in combination with a targeted agents in patient-derived cell lines with oncogenic KRAS variants from multiple cancer types A high-throughput screen of multi-cell type tumor spheroids was designed to identify active combinations of targeted small molecules and KRAS pathway inhibitors. […] Compounds. […] If the clinical Cmax for an agent had not been determined, the highest concentration tested was 10 microM. […]
Outcomes: T for active, F for inactive

- COMPOUND: "COC(=O)c1ccc2c(C(=Nc3ccc(N(C)C(=O)CN4CCN(C)CC4)cc3)c3ccccc3)c(O)[nH]c2c1 + CC1OCC2(CCN(c3cnc(Sc4ccnc(N)c4Cl)c(N)n3)CC2)C1N"
  LABEL CLASS: "F"
- COMPOUND: "COC(=O)c1ccc2c(C(=Nc3ccc(N(C)C(=O)CN4CCN(C)CC4)cc3)c3ccccc3)c(O)[nH]c2c1 + CNCc1ccccc1-c1csc(C(C)Nc2nc(C)nc3cc(OC)c(OC)cc23)c1"
  LABEL CLASS: "T"
- COMPOUND: "COc1cc(Nc2ncc3c(n2)-c2ccc(Cl)cc2C(c2c(F)cccc2OC)=NC3)ccc1C(=O)O + C=CC(=O)N1CCN(c2nc(=O)n(-c3c(C)ccnc3C(C)C)c3nc(-c4c(O)cccc4F)c(F)cc23)C(C)C1"
  LABEL CLASS: "F"
- COMPOUND: "O=C(c1cc(Cc2n[nH]c(=O)c3ccccc23)ccc1F)N1CCN(C(=O)C2CC2)CC1 + CC1OCC2(CCN(c3cnc(Sc4ccnc(N)c4Cl)c(N)n3)CC2)C1N"
  LABEL CLASS: "F"
- COMPOUND: "COc1cc2nccc(Oc3ccc(NC(=O)C4(C(=O)Nc5ccc(F)cc5)CC4)cc3)c2cc1OC + CNCc1ccccc1-c1csc(C(C)Nc2nc(C)nc3cc(OC)c(OC)cc23)c1"
  LABEL CLASS: "T"
